- protocolNotes: GPCRScan assay: inhibition of GABA/PBR
- Design: species or system Rattus norvegicus; radioligand conc. used [nm] 0.3 – 2.0, parental cells brain tissue

# molecularString, Ki / nM
data = [
    ("C[C@H](c1ccc(F)cc1)N(Cc1cccc(C(=O)O)c1)C(=O)c1cnc2ccccc2c1", 1020),
]
